Taken from ChEMBL document CHEMBL3988442.

Catalogue of compounds with associated Percent Effect
# measurement-target: Ubiquitin-activating enzyme e1, putative (Leishmania donovani (strain BPK282A1))
# test-name: Leishmania donovani Ubiquitin Activating Enzyme (LdE1)
# Type: functional
# Parameters: scale not given: direction of the effect not stated beside the values
# test-parameters: 30 µM
Measured potencies and affinities stand elsewhere.

Guide cases for Percent Effect, answers given:
compound	measurement-target	Percent Effect
CNc1cncc(C2CCCN(S(C)(=O)=O)C2)n1 (stereo not drawn)	Ubiquitin-activating enzyme e1, putative (Leishmania donovani (strain BPK282A1))	-1.35%
CC(=O)N1CC(=O)N(c2cnn(C)c2)CC12CCN(Cc1ccoc1)C2 (stereo not drawn)	Ubiquitin-activating enzyme e1, putative (Leishmania donovani (strain BPK282A1))	5.41%
CCOCCN1CCN(Cc2cccc(C(=O)N(C)C)c2)CC1	Ubiquitin-activating enzyme e1, putative (Leishmania donovani (strain BPK282A1))	0%
CC(C)c1n[nH]c(C2CN(C(=O)C3=COCC3)CCO2)n1 (stereo not drawn)	Ubiquitin-activating enzyme e1, putative (Leishmania donovani (strain BPK282A1))	2.63%
O=C(c1cnccn1)N1CCOCC2(CCN(C3CCOCC3)C2)C1 (stereo not drawn)	Ubiquitin-activating enzyme e1, putative (Leishmania donovani (strain BPK282A1))	25.3%

Incoming: For the compound Cc1cc(C)c2nc(CN3CCOC(CCO)C3)cc(O)c2c1 (stereo not drawn) , what Percent Effect is on record?
Outgoing: 2.7%

Incoming: Now try Cc1csc2nc3n(c(=O)c12)CCN(C(=O)c1ccncc1)CC3 .
Outgoing: 20.3%

Incoming: Now try CCc1nc(C(=O)NCc2ccc(N3CCNC(=O)C3)c(F)c2)c[nH]1 .
Outgoing: 18.9%

Incoming: Now try Cc1cc(C(=O)N2C[C@@H]3COC[C@]3(c3nnc(C4CC4)o3)C2)on1 .
Outgoing: 13.3%

Incoming: Now try Cn1nc(CNC(=O)NCc2ccc(Cl)cc2)c2c1CCOC2 .
Outgoing: 5.2%

---

Catalogue of compounds with associated Percent Effect
# measurement-target: Protein translocase subunit SecA (Escherichia coli (strain K12))
# test-name: Assay to Identify E. coli SecA ATPase Inhibitors
# Format: functional
# Set-up: scale not given: direction of the effect not stated beside the values
# test-parameters: 30 µM
Entries with a potency or affinity are not part of this list.
State just the number; it will be interpreted in %.

Guide cases for Percent Effect, answers given:
compound	property-measured	u	measured-value
COCCn1cc2c(n1)C(CNCc1ccco1)OCC2 (stereo not given)	Percent Effect	%	-7.4
COCCNC(=O)c1sc(Nc2ccc(Cl)cn2)nc1C	Percent Effect	%	-1.6
CC1(C)CC(N2Cc3nc(N4CCOCC4)ncc3C2=O)CC(C)(C)N1	Percent Effect	%	-6.55
O[C@H]1CCN(Cc2ccoc2)[C@H]1Cc1cccnc1	Percent Effect	%	-6.91
O=C1CCCc2cc(-c3csc(CCN4CCOC4=O)n3)ccc2N1	Percent Effect	%	-5.49

Incoming: For the compound CC(C)(C)c1nnc(CN2CCCC2c2noc(C3CC3)n2)o1 (stereo not given) , what Percent Effect is on record?
Outgoing: 0.285

Incoming: Now try O=C(c1cccnc1)N1CCC2(CC1)CCN(c1ccsc1)C2=O .
Outgoing: -4.05

Incoming: Now try Cc1n[nH]c(C2CN(C(=O)c3ccco3)CCO2)n1 (stereo not given) .
Outgoing: -4.76

Incoming: Now try Cc1cccc(C2(CNC(=O)CCNS(C)(=O)=O)CCCC2)c1 .
Outgoing: -6.74

Incoming: Now try COC(=O)c1cccc(NS(=O)(=O)c2cnc(NC(C)=O)s2)c1 .
Outgoing: 1.56

Incoming: Now try Cc1nnc2n1CCN(C(=O)COCCOc1ccccc1)C2 .
Outgoing: -3.64

Incoming: Now try Cc1ccccc1C(=O)NCc1ccc(N2CCNC(=O)C2)c(F)c1 .
Outgoing: -3.15

Incoming: Now try CC(C)CS(=O)(=O)N1C[C@H]2C[C@H](C(=O)NCc3ccccc3)[C@@H](C1)O2 .
Outgoing: 1.12

Incoming: Now try CC(C)c1n[nH]c(C2CN(C(=O)CCn3ccccc3=O)CCO2)n1 (stereo not given) .
Outgoing: -3.88

Incoming: Now try COc1ccc(CN2CCOC3(CCCN(c4nnc(C)o4)C3)C2)cc1 (stereo not given) .
Outgoing: -4.63

Incoming: Now try CC(C)c1nc(C2CCCN2C(=O)c2nccnc2N)no1 (stereo not given) .
Outgoing: -6.3

Incoming: Now try Cn1nc(COc2cccnc2)c2c1CCN(c1cnccn1)C2 .
Outgoing: -4.47

Incoming: Now try Cc1nc(CN2CCCN(C(=O)C(C)OCC3CC3)CC2)cs1 (stereo not given) .
Outgoing: -1.24

Incoming: Now try COc1c(C)cnc(CN2CCCCC2Cn2nc(C)nc2C)c1C (stereo not given) .
Outgoing: 0.617

Incoming: Now try C=C(Cl)CN1CCC(C(=O)c2cc(F)ccc2F)CC1 .
Outgoing: -2.54

Incoming: Now try Cn1cc(CN2CC[C@@H]3[C@@H](CCC(=O)N3CCc3c[nH]cn3)C2)cn1 .
Outgoing: -4.59

Incoming: Now try OC(CN1CCCCCCC1)c1ccc(F)cc1 (stereo not given) .
Outgoing: 0.984

Incoming: Now try Cn1c(NCC(O)c2ccc(F)cc2F)c(C#N)c(=O)n(C)c1=O (stereo not given) .
Outgoing: -4.86

Incoming: Now try O=C(CCCc1cn[nH]c1)N1CCOCC(O)C1 (stereo not given) .
Outgoing: -5.63

Incoming: Now try O=C(c1ccsc1)N1CCOC2(CCN(Cc3cccnc3)CC2)C1 .
Outgoing: -1.61

---

# measurement-target: Arginase-2, mitochondrial (Homo sapiens) (UniProt P78540)
# Sequence (P78540 whole entry): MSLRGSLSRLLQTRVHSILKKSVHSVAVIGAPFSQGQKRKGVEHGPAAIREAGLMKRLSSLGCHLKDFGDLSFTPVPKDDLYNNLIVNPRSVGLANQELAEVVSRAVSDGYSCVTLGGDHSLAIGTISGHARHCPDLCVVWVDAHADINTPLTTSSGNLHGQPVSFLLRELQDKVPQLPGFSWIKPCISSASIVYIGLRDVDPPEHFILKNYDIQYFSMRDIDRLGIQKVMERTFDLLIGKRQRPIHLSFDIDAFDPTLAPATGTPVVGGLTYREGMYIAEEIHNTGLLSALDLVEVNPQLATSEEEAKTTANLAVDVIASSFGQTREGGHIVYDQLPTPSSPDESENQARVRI
# test-name: in vitro enzyme assay to detect the production of urea directly proportional to the activity of Arginase II; note: in the data most compounds retested in dose-response had high values
# Type: functional
# Set-up: scale not given: direction of the effect not stated beside the values
# test-parameters: 33.3 µM
property-measured: Percent Effect (%)
State just the number; it will be interpreted in %.

compound	u	measured-value
Cc1nc(C)n(CC2CCCCN2CCS(C)(=O)=O)n1 (stereo not given)	%	-3.33
O=C(c1cccnc1)N1CCc2ncnc(C3CCOC3)c2CC1 (stereo not given)	%	3.5
CCN(C(c1cccnc1)c1ccc2c(c1)CCO2)S(C)(=O)=O (stereo not given)	%	-6.79
Cc1cc(C2CCCN2C(=O)NCc2cccc(F)c2)on1 (stereo not given)	%	1.56
NC(=O)C1CCCN1Cc1cccc(NC(=O)c2ccsc2)c1 (stereo not given)	%	10.4

Incoming: For the compound Cc1ccc(CN2C[C@@H]3COC[C@H](NS(C)(=O)=O)[C@@H]3C2)o1 , what Percent Effect is on record?
Outgoing: -56.8

Incoming: Now try CC(C)NC(=O)c1ccc2c(c1)nc1n2CCN(C(C)C)C1 .
Outgoing: -13.2

Incoming: Now try O=S(=O)(c1ccccc1)N1CCC2(CCCN2CC2CCCC2)C1 (stereo not given) .
Outgoing: 4.78

Incoming: Now try COc1c(CNCC(c2cccc(F)c2)N(C)C)c(C(C)C)nn1C (stereo not given) .
Outgoing: -3.16

Incoming: Now try Cc1nnc(C(C)N2CCN(Cc3ccc(C#N)cc3)CC2)o1 (stereo not given) .
Outgoing: 27.7

Incoming: Now try Cc1cc(C)n(CC2CN(CC(=O)NC3CCCC3)CCO2)n1 (stereo not given) .
Outgoing: -0.712

Incoming: Now try c1cnnc(N2CCCC(NCc3ccc(-n4cccn4)cc3)C2)c1 (stereo not given) .
Outgoing: 1.9

Incoming: Now try Cn1ccc(C(=O)N2CCC(Cc3cccc4cccnc34)C2)n1 (stereo not given) .
Outgoing: -2.09

Incoming: Now try O=C(c1nc(=O)[nH][nH]1)N1CCCC(c2cc(C(F)(F)F)[nH]n2)C1 (stereo not given) .
Outgoing: 2.77

Incoming: Now try COCCOc1ccccc1CNCc1c(C)nn(C)c1N(C)C .
Outgoing: -0.802

Incoming: Now try O=C(c1cc(Cl)c2c(c1)OCO2)N1CCN(c2nccs2)CC1 .
Outgoing: 3.18

Incoming: Now try COc1ccccc1OCCN1CCCC(c2noc(C3CC3)n2)C1 (stereo not given) .
Outgoing: 3.12

Incoming: Now try CCNc1cc2c(nn1)CCN(C(=O)c1ccc3cc[nH]c3c1)C2 .
Outgoing: -2.3

Incoming: Now try CCN1CCCC1CN(CCN(C)C)S(=O)(=O)c1cccc(C#N)c1 (stereo not given) .
Outgoing: 4.09

Incoming: Now try Cc1cc(CN2CCN(C(=O)NC(C)Cn3ccnc3)CC2)no1 (stereo not given) .
Outgoing: 1.53

Incoming: Now try COc1ccc2cc(C(=O)N3CCCCC3Cn3cccn3)[nH]c2c1 (stereo not given) .
Outgoing: 2.13

---

# Species on record: Homo sapiens
# test-name: To identify inhibition of the IFN signalling (Jak-Stat) pathway via expression of an eGFP reporter gene under the control of an IFN-stimulated response element (ISRE) containing MxA promoter.
# Type: functional
# Design: scale not given: direction of the effect not stated beside the values
# test-parameters: 30 µM
property-measured: Percent Effect (%)
State just the number; it will be interpreted in %.

Guide cases for Percent Effect, answers given:
compound	Percent Effect / %
Cc1noc(C)c1CN1CC2(CCN(C(=O)c3c[nH]cn3)C2)CC1=O (configuration not stated)	-2.42
O=C(c1ccncc1)N1CCC(O)(Cn2ccc3ccncc32)CC1	-0.964
O=C(N1CCCC1)N1CCO[C@H]2[C@@H](Oc3ccccn3)CC[C@@H]21	12.7
Cc1noc(-c2ccc(N3CCCC(C(=O)N4CCSCC4)C3)nc2)n1 (configuration not stated)	-0.682
CC1=Nc2c(c(=O)[nH]n2C(C)C)C(c2cccs2)S1 (configuration not stated)	11.9

Incoming: For the compound COc1cccc(CNc2nc(O)cc(C3CC(=O)N(C)C3)n2)c1 (configuration not stated) , what Percent Effect is on record?
Outgoing: 14.9

Incoming: Now try CCCNC(=O)C1CCN(Cc2csc(C(C)(C)C)n2)CC1 .
Outgoing: 12.5
